Tested on: ACHN renal
Test: NCI-60 one-dose screen, 48 h
Conditions: 10 µM unless noted
This is part of a sample that, as a whole, favours compounds with a hit. Of some 83,000 tested, about 20% had one in any assay. Activity calls are given as the source filed them. Rule for the calls: active = growth percent below 10; inactive = the rest. *1 amine or outer side, *2 acyl side, *3 side chain or, on linkers, in order; H or OH if unused. Where a SMILES comes first, the peptide text is derived from it. [ ]: non-standard residue; d: D form. The star is where a group is joined. X5 = CCC(=O)CC1CC(C)CC(C(=O)[*:2])N1[*:1]; X4 = CCCCCCCCC(C)C(=O)*; Aib = CC(C)(N)C(=O)O; X6 = CC(CN(C)CCO)N*
Please state which outcome applies, choosing from true (1) (active), false (0) (inactive)

compound: COc1ccc(/C=C2/C(=O)ON=C2C)cc1
label: false (0)
//
compound: Nc1nc2ncc(CNc3ccc(C(=O)NC(CCC(=O)NC(CCC(=O)NC(CCC(=O)NC(CCC(=O)NC(CCC(=O)O)C(=O)O)C(=O)O)C(=O)O)C(=O)O)C(=O)O)cc3)nc2c(=O)[nH]1 (stereo not drawn)
label: false (0)
//
compound: CN(C)c1ccc(C(=C2C=CC(=[N+](C)C)C=C2)c2ccc(N(C)C)cc2)cc1
label: true (1)
//
compound: Cc1ccc(Nc2ccc(O)c3c2C(=O)c2c(O)ccc(Nc4ccc(C)cc4)c2C3=O)cc1
label: false (0)
//
compound: CCCCCCCCC(C)C(=O)N1CCCC1C(=O)N1C(CC(=O)CC)CC(C)CC1C(=O)NC(C)C(=O)NC(C)(C)C(=O)NC(C)(C)C(=O)NC(C(=O)NC(C)C(=O)NC(C)(C)C(=O)NC(C)(C)C(=O)NC(C)CN(C)CCO)C(C)CC (stereo not drawn) (X4-P[X5]A[Aib][Aib]IA[Aib][Aib]-X6; configuration not given here)
label: true (1)
//
compound: Oc1ccc(Br)cc1Sc1cc(Br)ccc1O
label: false (0)
//
compound: CCCCCCN(CCCCCC)CCCNc1nccc2ccccc12
label: false (0)
//
compound: CCCCCCCCCCCC[N+]1(CCCCCCCCCCCC)CCCC(C)C1 (stereo not drawn)
label: true (1)
//
compound: O=C1C(=O)c2cccnc2-c2ncccc21
label: true (1)
//
compound: CN(C)CCN(C)CC(C)(C)C(=O)/C=C/c1ccc(Cl)c(Cl)c1
label: true (1)

Ask | // return assay outcome for CCN1CCCC(Nc2cc(C)nc(/N=C(/N)Nc3ccc(Cl)c(Cl)c3)n2)C1 (stereo not drawn)
Reply | true (1)

Ask | // return assay outcome for O=C1c2ccccc2Cc2cccc(Cl)c21
Reply | false (0)

Ask | // return assay outcome for CCCOS(=O)(=O)c1ccccc1
Reply | false (0)

Ask | // return assay outcome for CN(C)c1ccc(/C=C/c2cc[n+](C)c(/C=C/c3ccc(N(C)C)cc3)c2)cc1
Reply | false (0)

Ask | // return assay outcome for Cc1cc2nc(CC(=O)c3ccncc3)c(=O)[nH]c2cc1C
Reply | false (0)

Ask | // return assay outcome for O=[N+]([O-])/C(=C/c1ccccc1)c1ccccc1
Reply | false (0)

Ask | // return assay outcome for OC(c1cc2ccc(C(F)(F)F)cc2c2cc(C(F)(F)F)ccc12)C1CCCCN1 (stereo not drawn)
Reply | true (1)

Ask | // return assay outcome for Cc1cc(C(=C2C=CC(=Nc3ccccc3)C=C2)c2ccc(Nc3ccccc3)cc2)ccc1N
Reply | true (1)

* * *

Some compounds, each annotated with its measured growth.
System: NCI-H226 lung
Test: NCI-60 one-dose screen, 48 h (100 = growth as untreated, 0 = no growth, -100 = all killed)
Conditions: 10 µM unless noted
Compounds without any hit were thinned out: in the full panel of roughly 83,000, 20% have a hit.
All answers are understood in %, so give the number only.

compound: CCCCCCCCCCCC1N=C(N)N=C(N)N1c1cccc(Br)c1 (stereo unspecified)
result.value: 39.1

compound: OC(CSc1ccccc1)CN1CCN(c2ccc(Cl)cc2)CC1 (stereo unspecified)
result.value: 91.7

compound: Cc1nc([N+](=O)[O-])c(Sc2nncc(-c3ccccc3)n2)n1C
result.value: 80.1

compound: O=[N+]([O-])c1ccc2c(c1)Cc1ccccc1-2
result.value: 108

compound: Oc1ccc(Br)cc1Sc1cc(Br)ccc1O
result.value: 98.2

compound: Cc1cc(C)c(C#N)c(Sc2nc(C)c([N+](=O)[O-])c(C)c2C#N)n1
result.value: 111

Ask | Please give the documented growth of CC1(C)OC2C(COC(c3ccccc3)(c3ccccc3)c3ccccc3)OC(c3c[nH]c4c(N)ncnc34)C2O1 (stereo unspecified)
Reply | 72.9

Ask | Please give the documented growth of CCOC(=O)NC(/C=C/c1ccccc1)NC(=O)OCC
Reply | 102

* * *

Test system: MALME-3M melanoma
Assay: NCI-60 one-dose screen, 48 h (100 = growth as untreated, 0 = no growth, -100 = all killed)
Conditions: 10 µM unless noted
Compounds without any hit were thinned out: in the full panel of roughly 83,000, 20% have a hit.
Rule: growth below 50% gives label 1, anything at or above gives label 0.

These recorded examples may help you get a feel for the data.
compound: c1csc(-c2[nH]nc3c2CCc2ccccc2-3)c1
label: label 0
--
compound: Nc1ccc(C(=O)/C=C/c2ccccc2)cc1
label: label 0
--
compound: CN(C)c1ccc(C(=C2C=CC(=[N+](C)C)C=C2)c2ccc(N(C)C)cc2)cc1
label: label 1
--
compound: CCCCCCCCC(=O)OCCCC(CCC(CCC1CCCO1)OC(=O)CCCCCCCC)OC(=O)CCCCCCCC (stereo not drawn)
label: label 0
--
compound: O=C1/C(=C/c2ccccn2)CCc2ccccc21
label: label 0

Below: the item to evaluate.
Ask | For this compound, is growth lower than 50%? COC(=O)Nc1nc2ccc(C3(c4ccc(F)cc4)OCCO3)cc2[nH]1
Reply | label 1

* * *

System: NCI-H322M lung
Test: NCI-60 one-dose screen, 48 h
Conditions: 10 µM unless noted
Compounds without any hit were thinned out: in the full panel of roughly 83,000, 20% have a hit. The source made the active and inactive calls. The calls were made as follows: active = growth percent below 10; inactive = the rest.
Please state which outcome applies, choosing from True for active, False for inactive

These recorded examples may help you get a feel for the data.
compound: CCCCCCCCCCCCCCCCSC(=NCC)NCC
label: False
//
compound: c1ccc(-c2cccc(-c3ccccn3)n2)nc1
label: False
//
compound: COc1cc(OC)c(/C=C/c2c3ccccc3cc[n+]2C)c(OC)c1
label: False
//
compound: Oc1ccc2ccccc2c1N=Nc1ccccn1
label: False
//
compound: NC(=S)N/N=C/c1ncccc1O
label: False
//
compound: COc1ccc(/C=C2/C(=O)ON=C2C)cc1
label: False
//
compound: CCC1CCCCN1C(=S)N/N=C(\C)c1ccccn1 (stereo not drawn)
label: True
//
compound: CCCCCCN(CCCCCC)CCCNc1nccc2ccccc12
label: False

Ask | // return assay outcome for CCCCCCCCCCCC(=O)OC(C)C(=O)NCCCC (stereo not drawn)
Reply | False

Ask | // return assay outcome for CN(C)CCN(C)CC(C)(C)C(=O)/C=C/c1ccc(Cl)c(Cl)c1
Reply | True

* * *

System: DU-145 prostate
Assay: NCI-60 one-dose screen, 48 h (100 = growth as untreated, 0 = no growth, -100 = all killed)
Details: 10 µM unless noted
About 83,000 compounds went through this panel and 20% of them were active in at least one assay; those are over-represented in the sample as a whole.
Rule: growth below 90% gives Y, anything at or above gives N.

These recorded examples may help you get a feel for the data.
compound: C/C(=N\NC(=S)N1CC2CCC(CC2)C1)c1ccccn1
study.target: DU-145 prostate
label: Y
//
compound: CC1(C)CCCC2=C1C(=O)N(SC(Cl)(Cl)Cl)C2=O
study.target: DU-145 prostate
label: N
//
compound: CCCCCCN(CCCCCC)CCCNc1nccc2ccccc12
study.target: DU-145 prostate
label: Y

Ask | For this compound, is growth lower than 90%? Oc1ccc2ccccc2c1N=Nc1nccs1
Reply | Y

Ask | For this compound, is growth lower than 90%? N#Cc1c2ccccc2nc2ccccc12
Reply | N

Ask | For this compound, is growth lower than 90%? CCCCCCC1N=C(N)N=C(N)N1c1cccc(Cl)c1 (configuration not stated)
Reply | Y

Ask | For this compound, is growth lower than 90%? CC(/C=N/NC(N)=S)Cc1ccc(C(C)C)cc1 (configuration not stated)
Reply | N

Ask | For this compound, is growth lower than 90%? O=C(c1ccc(O)c(Br)c1)c1ccc(O)c(Br)c1
Reply | Y

Ask | For this compound, is growth lower than 90%? CC1=CC(=NC(=O)CBr)C=C/C1=N\S(=O)(=O)c1ccccc1
Reply | Y

Ask | For this compound, is growth lower than 90%? CCCc1cc(=O)oc2c3c(c4c(c12)OC(C)(C)CC4)OC(C)[C@H](C)[C@@H]3O (some centres not stated)
Reply | N

Ask | For this compound, is growth lower than 90%? CCN(CC)CCNC(Cc1ccccc1)c1ccc(OCc2ccccc2)cc1 (configuration not stated)
Reply | N

Ask | For this compound, is growth lower than 90%? N#C/C(=N\Nc1ccc(Cl)cc1)C(=O)C1CC1
Reply | Y
